// data source = BindingDB's records for doi:10.1080/14756360310001612211

Quick note: these are IC50 numbers for system: UniProt P00523

Sample CN(C)CCOC(=O)c1cc2ccccc2n1-c1ccccc1 [Indole ester derivative, 17] ; IC50 observed: > 1000 µM

Sample CCN(CC)CCOC(=O)c1cc2ccccc2[nH]1 [Indole ester derivative, 23] ; IC50 observed: > 1000 µM
